Can you tell me IC50 for the items I'm about to list?
- Target system: Fatty-acid amide hydrolase 1 (Rattus norvegicus)
- Sequence (P97612 whole entry): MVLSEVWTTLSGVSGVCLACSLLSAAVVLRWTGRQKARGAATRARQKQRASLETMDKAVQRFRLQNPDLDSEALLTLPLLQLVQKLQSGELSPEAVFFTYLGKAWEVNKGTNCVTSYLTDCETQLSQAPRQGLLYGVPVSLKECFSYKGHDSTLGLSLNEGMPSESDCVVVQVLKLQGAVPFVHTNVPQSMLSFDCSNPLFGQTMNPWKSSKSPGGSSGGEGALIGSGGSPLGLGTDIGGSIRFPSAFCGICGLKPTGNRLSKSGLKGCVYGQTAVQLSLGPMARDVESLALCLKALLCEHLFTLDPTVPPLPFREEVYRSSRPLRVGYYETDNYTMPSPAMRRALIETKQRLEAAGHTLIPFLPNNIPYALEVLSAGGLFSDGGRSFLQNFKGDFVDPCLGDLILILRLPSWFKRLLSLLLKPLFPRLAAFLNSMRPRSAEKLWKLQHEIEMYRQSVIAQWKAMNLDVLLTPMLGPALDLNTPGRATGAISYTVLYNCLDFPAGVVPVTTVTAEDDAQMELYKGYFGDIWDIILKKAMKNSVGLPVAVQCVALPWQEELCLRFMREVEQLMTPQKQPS
The figure you give is taken to be in µM; do not add the unit.

Data point: "CC(=O)Nc1ccc(OC(=O)CCc2ccc(Nc3ccnc(C(F)(F)F)c3)cc2)cc1" ; IC50 = 1.5

Just so you know, measured IC50 for "CC(=O)Nc1ccc(OC(=O)c2cc(Cl)ccc2Nc2ccnc(C(F)(F)F)c2)cc1" came out at 4.3

Per the record, "CC(=O)Nc1ccc(OC(=O)c2cccnc2Nc2ccnc(C(F)(F)F)c2)cc1" has IC50 of 58

Given item "CC(=O)Nc1ccc(OC(=O)Cc2ccc(Nc3ccnc(C(F)(F)F)c3)cc2)cc1" , the value recorded as its IC50 is 0.18

Item: CC(=O)Nc1ccc(OC(=O)CNC(=O)C(C)c2ccc(Nc3ccnc(C(F)(F)F)c3)cc2)cc1 (stereo not given) | IC50: 0.73

The values you see were collected from ChEMBL document CHEMBL1157564.
